# System: T. cruzi amastigote (Tulahuen strain expressing β-galactosidase)
# assay_overview: Intracellular T. cruzi assay in 3T3 cells (beta-galactosidase, 96 h)
# Assay type: cell-based, Trypanosoma cruzi
# assay_conditions: intracellular in 3T3 cells, 96 h; read-out: T. cruzi amastigote EC50
property: EC50

>>> recorded_measurement("Cc1n[nH]c(C)c1Nc1ccc2c(Nc3cnccn3)ccnc2c1")
"> 50 µM"
>>> recorded_measurement("Cc1nnc(Nc2ccc3c(Nc4cnccn4)ccnc3c2)nc1C")
"> 50 µM"
>>> recorded_measurement("CN1CCN(S(=O)(=O)c2ccc(-c3ccc4c(Nc5cnc(C#N)cn5)ccnc4c3)cc2)CC1")
"> 50 µM"
>>> recorded_measurement("Cc1nn(C)c(C)c1Nc1ccc2c(Nc3cnccn3)ccnc2c1")
"> 50 µM"
>>> recorded_measurement("CN1CCN(c2ccnc(Nc3ccc4c(Nc5cnccn5)ccnc4c3)n2)CC1")
"> 20 µM"
>>> recorded_measurement("c1cnc(Nc2ccnc3cc(Nc4nccnn4)ccc23)cn1")
"> 50 µM"
>>> recorded_measurement("c1coc(-c2ccc3c(Nc4cnccn4)ccnc3c2)c1")
"4.7 µM"
>>> recorded_measurement("Cc1cc(Nc2ccc3c(Nc4cnccn4)ccnc3c2)sn1")
"> 50 µM"
>>> recorded_measurement("Cn1nccc1Nc1ccc2c(Nc3cnccn3)ccnc2c1")
"> 50 µM"
>>> recorded_measurement("CN1CCN(c2nccc(Nc3ccc4c(Nc5cnccn5)ccnc4c3)n2)CC1")
"> 50 µM"
>>> recorded_measurement("Cc1cnc(Nc2ccc3c(Nc4cnccn4)ccnc3c2)s1")
"> 50 µM"
>>> recorded_measurement("Cc1cc(Nc2ccc3c(Nc4cnccn4)ccnc3c2)on1")
"21 µM"
>>> recorded_measurement("COc1ccc(Nc2ccnc3cc(Nc4ccnc(N5CCN(C)CC5)n4)ccc23)cc1Cl")
"8.1 µM"
>>> recorded_measurement("COc1ccc(Nc2ccnc3cc(-c4cnn(C)c4)ccc23)cc1Cl")
"1.9 µM"
>>> recorded_measurement("Cc1ccc(-c2ccc3c(Nc4cnccn4)ccnc3c2)o1")
"0.79 µM"
>>> recorded_measurement("CN1CCN(S(=O)(=O)c2ccc(-c3ccc4c(Nc5ccc6[nH]nnc6c5)ccnc4c3)cc2)CC1")
"> 50 µM"
>>> recorded_measurement("c1cnc(Nc2ccnc3cc(-c4cn[nH]c4)ccc23)cn1")
"> 50 µM"
>>> recorded_measurement("Cc1nnc(Nc2ccnc3cc(-c4ccc(S(=O)(=O)N5CCN(C)CC5)cc4)ccc23)nc1C")
"> 50 µM"
>>> recorded_measurement("Cn1ccnc1Nc1ccc2c(Nc3cnccn3)ccnc2c1")
"> 50 µM"
>>> recorded_measurement("COc1ccc(Nc2ccnc3cc(-c4cn[nH]c4)ccc23)cc1Cl")
"> 50 µM"
>>> recorded_measurement("COc1ccc(Nc2ccnc3cc(Nc4nccc(N5CCN(C)CC5)n4)ccc23)cc1Cl")
"> 20 µM"
